- target.system: OfChtI (Ostrinia furnacalis, UniProt Q2V6H4)
- Sequence (Q2V6H4 19-407): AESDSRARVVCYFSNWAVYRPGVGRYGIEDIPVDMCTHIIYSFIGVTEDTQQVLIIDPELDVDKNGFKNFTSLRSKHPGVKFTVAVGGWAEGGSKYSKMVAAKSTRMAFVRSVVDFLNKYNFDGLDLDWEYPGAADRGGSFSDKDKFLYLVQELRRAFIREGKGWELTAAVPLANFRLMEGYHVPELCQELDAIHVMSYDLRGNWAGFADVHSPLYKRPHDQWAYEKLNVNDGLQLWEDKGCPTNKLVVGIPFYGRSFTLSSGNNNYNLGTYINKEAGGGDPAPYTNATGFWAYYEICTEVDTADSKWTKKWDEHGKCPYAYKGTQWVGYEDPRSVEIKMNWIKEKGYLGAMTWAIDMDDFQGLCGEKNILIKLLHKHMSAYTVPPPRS
quantity.name: pKd
# log scale: pKd equals minus log10 of the concentration in mol/L

Looking up C[C@H]1O[C@H](O[C@H]2[C@H](O)[C@@H](O)[C@@H](O)[C@H](O)[C@@H]2O)[C@@H](N)C[C@@H]1NC(=N)C(=O)O , I see its pKd listed as 5.40

----------
- target.system: OfChi-h (Ostrinia furnacalis)
- Sequence (Q4AE59 18-553): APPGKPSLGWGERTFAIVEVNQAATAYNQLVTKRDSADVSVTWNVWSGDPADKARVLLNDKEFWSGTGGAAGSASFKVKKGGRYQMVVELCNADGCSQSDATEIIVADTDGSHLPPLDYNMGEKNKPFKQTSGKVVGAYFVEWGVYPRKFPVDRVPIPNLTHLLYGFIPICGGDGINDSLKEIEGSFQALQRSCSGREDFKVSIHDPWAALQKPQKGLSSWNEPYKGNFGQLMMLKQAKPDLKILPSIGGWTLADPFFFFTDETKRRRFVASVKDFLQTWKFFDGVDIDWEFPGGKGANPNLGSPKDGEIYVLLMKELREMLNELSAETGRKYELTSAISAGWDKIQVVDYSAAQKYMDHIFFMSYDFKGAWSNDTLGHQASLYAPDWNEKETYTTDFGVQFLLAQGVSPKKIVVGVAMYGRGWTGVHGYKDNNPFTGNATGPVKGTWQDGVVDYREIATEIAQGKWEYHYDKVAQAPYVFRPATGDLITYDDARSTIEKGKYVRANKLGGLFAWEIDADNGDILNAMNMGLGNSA
- test.method.notes: Tryptophan fluorescence quenching spectroscopy
quantity.name: Kd

Looking up C[C@H]1O[C@H](O[C@H]2[C@H](O)[C@@H](O)[C@@H](O)[C@H](O)[C@@H]2O)[C@@H](N)C[C@@H]1NC(=N)C(=O)O , I see its Kd listed as 11.5 µM

----------
- target.system: OfChi-h (Ostrinia furnacalis)
- test.method.notes: Inhibitory activity determination with MU-β-(GlcNAc)2, Dixon plots
quantity.name: pKi
# log scale: pKi equals minus log10 of the concentration in mol/L

Looking up C[C@H]1O[C@H](O[C@H]2[C@H](O)[C@@H](O)[C@@H](O)[C@H](O)[C@@H]2O)[C@@H](N)C[C@@H]1NC(=N)C(=O)O , I see its pKi listed as 5.57
